The reader will find reported Km values listed item by item below.
Biological target: BaPanK (type-III pantothenate kinase from Bacillus anthracis) (Bacillus anthracis)
Sequence (Q81VX4 whole entry, looked up): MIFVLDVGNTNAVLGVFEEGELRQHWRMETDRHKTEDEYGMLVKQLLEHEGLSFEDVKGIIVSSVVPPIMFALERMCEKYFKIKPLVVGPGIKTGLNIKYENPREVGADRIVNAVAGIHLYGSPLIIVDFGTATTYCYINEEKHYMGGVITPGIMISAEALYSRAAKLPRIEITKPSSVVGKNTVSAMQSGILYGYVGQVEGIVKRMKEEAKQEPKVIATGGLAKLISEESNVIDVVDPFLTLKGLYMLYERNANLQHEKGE
Type: biochemical
Numbers only here, please. The scale is µM.

// solved cases for Km follow
>>> number("Nc1ncnc2c1ncn2[C@H]1C[C@H](O)[C@@H](COP(=O)(O)OP(=O)(O)OP(=O)(O)O)O1")
138
>>> number("Nc1ncnc2c1ncn2[C@@H]1O[C@H](COP(=O)(O)OP(=O)(O)OP(=O)(O)O)[C@@H](O)[C@H]1O")
510
>>> number("Cc1cn([C@H]2C[C@H](O)[C@@H](COP(=O)(O)OP(=O)(O)OP(=O)(O)O)O2)c(=O)[nH]c1=O")
723

Next molecule, Km to be filled in.
The reported value for "Nc1nc2c(ncn2[C@H]2C[C@H](O)[C@@H](COP(=O)(O)OP(=O)(O)OP(=O)(O)O)O2)c(=O)[nH]1" in terms of Km is 117
